Tested on: complement activation in factor B-depleted human sera
Assay type: biochemical
Square brackets hold non-standard residues; d marks the D form. Peptide text beside a SMILES is read from it. Sar = CNCC(=O)O
Measured Hemolysis (%), listed per entry for reference.

Data point: CC[C@H](C)[C@H](N)C(=O)N[C@@H](C)C(=O)N[C@@H](CC(C)C)C(=O)N[C@H](C(=O)N[C@@H](CC(C)C)C(=O)N[C@@H](CCC(=O)O)C(=O)N1CCC[C@H]1C(=O)N[C@H](C(=O)N(C)CC(=O)N[C@@H](C)C(=O)N[C@@H](CCC(N)=O)C(=O)N[C@@H](CCC(=O)O)C(=O)N[C@@H](CCCNC(=N)N)C(=O)N[C@@H](C)C(=O)N[C@@H](C)C(=O)O)[C@@H](C)CC)[C@@H](C)CC [PA-C9SarC10A] (H-IALILEPI[Sar]AQERAA-OH) ; Hemolysis (%) = 99.37%

* * *

Test: Solubility in water
Type: physicochemical
Details: Table 7, PEGylated and sarcosine/alanine substitution peptides
Square brackets hold non-standard residues; d marks the D form. Peptide text beside a SMILES is read from it. Sar = CNCC(=O)O
quantity_measured: Solubility in water

{"columns": ["compound", "assay_result"],
 "data": [
  ["CC[C@H](C)[C@H](N)C(=O)N[C@@H](C)C(=O)N[C@@H](CC(C)C)C(=O)N[C@H](C(=O)N[C@@H](CC(C)C)C(=O)N[C@@H](C)C(=O)N(C)CC(=O)N[C@H](C(=O)N[C@@H](CS)C(=O)N[C@@H](CS)C(=O)N[C@@H](CCC(N)=O)C(=O)N[C@@H](C)C(=O)N[C@@H](CCCNC(=N)N)C(=O)N[C@@H](C)C(=O)N[C@@H](C)C(=O)O)[C@@H](C)CC)[C@@H](C)CC [Peptide E6AE12AP7Sar] (H-IALILA[Sar]ICCQARAA-OH; N-terminus and C-terminus assumed)", "Yes"]
]}

* * *

Test system: complement activation in factor B-depleted human sera
Format: biochemical
Square brackets hold non-standard residues; d marks the D form. Peptide text beside a SMILES is read from it. Sar = CNCC(=O)O
Please enter True where Hemolysis (%) is greater than or equal to 4%, and False where it is lower.

{"columns": ["compound", "class"],
 "data": [
  ["CC[C@H](C)[C@H](N)C(=O)N[C@@H](C)C(=O)N[C@@H](CC(C)C)C(=O)N(C)CC(=O)N[C@@H](CC(C)C)C(=O)N[C@@H](CCC(=O)O)C(=O)N1CCC[C@H]1C(=O)N[C@H](C(=O)N[C@@H](CS)C(=O)N[C@@H](CS)C(=O)N[C@@H](CCC(N)=O)C(=O)N[C@@H](CCC(=O)O)C(=O)N[C@@H](CCCNC(=N)N)C(=O)N[C@@H](C)C(=O)N[C@@H](C)C(=O)O)[C@@H](C)CC [PA-I4Sar] (H-IAL[Sar]LEPICCQERAA-OH; N-terminus and C-terminus assumed)", "True"],
  ["CC[C@H](C)[C@H](N)C(=O)N[C@@H](C)C(=O)N[C@@H](CC(C)C)C(=O)N[C@H](C(=O)N[C@@H](CC(C)C)C(=O)N[C@@H](CCC(=O)O)C(=O)N1CCC[C@H]1C(=O)N[C@H](C(=O)N[C@@H](CS)C(=O)N[C@@H](CS)C(=O)N[C@@H](CCC(N)=O)C(=O)N[C@@H](CCC(=O)O)C(=O)N(C)CC(=O)N[C@@H](C)C(=O)N[C@@H](C)C(=O)O)[C@@H](C)CC)[C@@H](C)CC", "False"],
  ["CC[C@H](C)[C@H](N)C(=O)N[C@@H](C)C(=O)N[C@@H](CC(C)C)C(=O)N[C@H](C(=O)N[C@@H](CC(C)C)C(=O)N[C@@H](CCC(=O)O)C(=O)N(C)CC(=O)N[C@H](C(=O)N[C@@H](CS)C(=O)N[C@@H](CS)C(=O)N[C@@H](CCC(N)=O)C(=O)N[C@@H](CCC(=O)O)C(=O)N[C@@H](CCCNC(=N)N)C(=O)N(C)CC(=O)N[C@@H](C)C(=O)O)[C@@H](C)CC)[C@@H](C)CC [Peptide A14SarP7Sar, IALILE(Sar)ICCQER(Sar)A] (H-IALILE[Sar]ICCQER[Sar]A-OH; N-terminus and C-terminus assumed)", "True"],
  ["CC[C@H](C)[C@H](N)C(=O)N[C@@H](C)C(=O)N[C@@H](CC(C)C)C(=O)N[C@H](C(=O)N[C@@H](CC(C)C)C(=O)N(C)CC(=O)N1CCC[C@H]1C(=O)N[C@H](C(=O)N[C@@H](CS)C(=O)N[C@@H](CS)C(=O)N[C@@H](CCC(N)=O)C(=O)N[C@@H](CCC(=O)O)C(=O)N[C@@H](CCCNC(=N)N)C(=O)N[C@@H](C)C(=O)N[C@@H](C)C(=O)O)[C@@H](C)CC)[C@@H](C)CC", "True"]
]}

(Q) Please check the record CC[C@H](C)[C@H](N)C(=O)N[C@@H](C)C(=O)N[C@@H](CC(C)C)C(=O)N[C@H](C(=O)N[C@@H](CC(C)C)C(=O)N[C@@H](CCC(=O)O)C(=O)N1CCC[C@H]1C(=O)N[C@H](C(=O)N[C@@H](CS)C(=O)N[C@@H](CS)C(=O)N[C@@H](CCC(N)=O)C(=O)N[C@@H](CCC(=O)O)C(=O)N[C@@H](CCCNC(=N)N)C(=O)N[C@@H](C)C(=O)N(C)CC(=O)O)[C@@H](C)CC)[C@@H](C)CC and state if its Hemolysis (%) is at or above 4%.
(A) True
